FYI, the data here is from ChEMBL document CHEMBL2311288.

# Tested on: Rattus norvegicus
# TEST_PROTOCOL: AUC in rat at 10 mg/kg
# Type: ADME, organism-based, Plasma
# Parameters: dose 10 mg/kg
# RECORDED_CONDITIONS: in vivo
EXPERIMENTAL_ENDPOINT: AUC

Quick note, AUC for `CC(C)(C)c1ccc(CN2CCC3(CCN(C(=O)CNC(=O)c4cccnc4)CC3)Oc3ccccc32)cc1` landed at 341 ng·h/g

Quick note, AUC for `CC(=O)NCC(=O)N1CCC2(CC1)CCN(Cc1ccc(C(C)(C)C)cc1)c1ccccc1O2` landed at 3464 ng·h/g

Quick note, AUC for `O=C(NCCC1CC1)c1ccc(N2CCC3(CC2)CCN(Cc2cccc(C(F)(F)F)c2)c2ccccc2O3)nc1` landed at 23 ng·h/g

Quick note, AUC for `CC(=O)NCC(=O)N1CCC2(CC1)CCN(CCc1ccc(C(C)C)cc1)c1ccccc1O2` landed at 2608 ng·h/g

Quick note, AUC for `NC(=O)c1cnc(N2CCC3(CC2)CCN(Cc2cccc(C(F)(F)F)c2)c2ccccc2O3)s1` landed at 58 ng·h/g

Quick note, AUC for `O=C(O)c1cnc(N2CCC3(CC2)CCN(Cc2cccc(C(F)(F)F)c2)c2ccccc2O3)s1` landed at 2308 ng·h/g

Quick note, AUC for `CNC(=O)c1cnc(N2CCC3(CC2)CCN(Cc2cccc(C(F)(F)F)c2)c2ccccc2O3)s1` landed at 0 ng·h/g

Quick note, AUC for `CNC(=O)c1cccc(NC(=O)N2CCC(Oc3ccccc3Cl)CC2)c1` landed at 1435 ng·h/g

Quick note, AUC for `CCc1ccc(CN2CCC3(CCN(C(=O)CNC(C)=O)CC3)Oc3ccccc32)cc1` landed at 1288 ng·h/g

Quick note, AUC for `N#Cc1cnc(N2CCC3(CC2)CCN(Cc2cccc(C(F)(F)F)c2)c2ccccc2O3)s1` landed at 383 ng·h/g

Quick note, AUC for `O=C(NCCC1CC1)c1ccc(N2CCC3(CC2)CCN(Cc2cccc(C(F)(F)F)c2)c2ccccc2O3)nn1` landed at 105 ng·h/g
